Data provenance is patent US6497862B2.

- Test Summary: Formation of 2-nonenal from linoleic acid by heating, GC of HSG (Experiment 2)
- Conditions: linoleic acid + 100 mg test saccharide, heated at 105° C. for one hour; control 5.75
Under this convention, satisfied denotes Content of 2-nonenal in HSG strictly below 5 µg/mL and not satisfied denotes Content of 2-nonenal in HSG at or above 5 µg/mL.

[
  {
    "Molecule": "OC[C@H]1O[C@H](O[C@H]2O[C@H](CO)[C@@H](O)[C@H](O)[C@H]2O)[C@H](O)[C@@H](O)[C@@H]1O",
    "Classification": "satisfied"
  },
  {
    "Molecule": "OC[C@H]1O[C@H](O[C@H]2[C@H](O)[C@@H](O)C(O)O[C@@H]2CO)[C@H](O)[C@@H](O)[C@@H]1O (mixture of isomers)",
    "Classification": "satisfied"
  },
  {
    "Molecule": "OC[C@H]1O[C@@](CO)(O[C@H]2O[C@H](CO)[C@@H](O)[C@H](O)[C@H]2O)[C@@H](O)[C@@H]1O",
    "Classification": "not satisfied"
  },
  {
    "Molecule": "OC[C@H]1O[C@@H](O[C@H]2O[C@H](CO)[C@@H](O)[C@H](O)[C@H]2O)[C@H](O)[C@@H](O)[C@@H]1O",
    "Classification": "not satisfied"
  },
  {
    "Molecule": "OC[C@@H](O)[C@@H](O[C@H]1O[C@H](CO)[C@@H](O)[C@H](O)[C@H]1O)[C@H](O)[C@@H](O)CO",
    "Classification": "satisfied"
  }
]
